Where these numbers come from: patent US11198713B2

// reported pEC50 per item
- STUDY TARGET: full-length beta-catenin (Axin site) (Homo sapiens, UniProt P35222)
- Construct: 15 nM full-length beta-catenin, 20 nM FITC labeled peptide in buffer
- Sequence (P35222 whole entry): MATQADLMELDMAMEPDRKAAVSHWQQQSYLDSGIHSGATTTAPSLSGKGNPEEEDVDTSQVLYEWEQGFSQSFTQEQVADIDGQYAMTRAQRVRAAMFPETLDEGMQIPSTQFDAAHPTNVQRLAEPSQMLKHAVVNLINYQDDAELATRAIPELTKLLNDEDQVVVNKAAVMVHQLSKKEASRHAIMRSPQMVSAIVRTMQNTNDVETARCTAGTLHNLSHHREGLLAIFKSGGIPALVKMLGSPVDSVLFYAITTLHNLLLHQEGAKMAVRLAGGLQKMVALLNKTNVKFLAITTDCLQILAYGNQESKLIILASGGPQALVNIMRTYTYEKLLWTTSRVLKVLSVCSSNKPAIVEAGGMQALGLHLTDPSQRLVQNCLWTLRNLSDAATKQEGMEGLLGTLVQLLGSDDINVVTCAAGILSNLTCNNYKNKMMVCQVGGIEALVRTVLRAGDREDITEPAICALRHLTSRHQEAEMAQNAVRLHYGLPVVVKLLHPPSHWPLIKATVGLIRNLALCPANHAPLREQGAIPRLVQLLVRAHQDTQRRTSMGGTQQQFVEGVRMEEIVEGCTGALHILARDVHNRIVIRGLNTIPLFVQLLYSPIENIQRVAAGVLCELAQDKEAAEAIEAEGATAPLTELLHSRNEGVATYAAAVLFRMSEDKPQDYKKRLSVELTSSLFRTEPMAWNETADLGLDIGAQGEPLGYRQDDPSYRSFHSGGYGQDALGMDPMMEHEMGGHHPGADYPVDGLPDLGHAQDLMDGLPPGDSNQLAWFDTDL
- ASSAY NAME: Competition fluorescence polarization assay (Axin site probe)
- Assay type: binding
- TEST SETTINGS: competition with FITC labeled Axin-site probe, 15 nM full-length beta-catenin; read-out: FP EC50
pEC50: −log10 of the molar value.
MEASURED ENDPOINT: pEC50

>>> result("CC[C@H](C)[C@@H]1NC(=O)[C@]2(NC(=O)[C@H](CCC(N)=O)NC(=O)[C@@H]3CCCN3C(C)=O)CCN(CC=CCCCCC[C@@](C)(C(=O)N[C@@H](Cc3c[nH]cn3)C(=O)N[C@H](C(=O)N[C@@H](CCCNC(=N)N)C(=O)N[C@@H](CCCNC(=N)N)C(=O)N[C@H](C(=O)N[C@@H](Cc3c[nH]c4ccccc34)C(=O)N[C@@H](CCCNC(=N)N)C(N)=O)C(C)C)C(C)C)NC(=O)[C@H](CC(=O)O)NC(=O)[C@H](CC(C)C)NC1=O)C2 (single isomer, unassigned) [FP-0753, Ac-P-Q-PS-I-L-D-S7-H-V-R-R-V-W-R-NH2]")
"< 5.30"
>>> result("CC[C@H](C)[C@@H]1NC(=O)[C@@](C)(NC(=O)[C@H](CCC(N)=O)NC(=O)[C@@H]2CCCN2C(C)=O)CCCC=CCCC[C@@](C)(C(=O)N[C@@H](Cc2c[nH]cn2)C(=O)N[C@H](C(=O)N[C@@H](CCCNC(=N)N)C(=O)N[C@@H](CCCNC(=N)N)C(=O)N[C@H](C(=O)N[C@@H](Cc2c[nH]c3ccccc23)C(=O)N[C@@H](CCCNC(=N)N)C(N)=O)C(C)C)C(C)C)NC(=O)[C@H](CC(=O)O)NC(=O)[C@H](CC(C)C)NC1=O (single isomer, unassigned) [FP-0787]")
"~7.00"
